- test.summary: Quality of castor oil containing emulsions with different steroids (pH, volume distribution, span, storage stability)
- Type: physicochemical
- stated.conditions: emulsion of the steroid, vehicle CO (castor oil), heat sterilized
Recorded measurements of pH, one per entry

Examples with answers:
[
  {
    "compound": "C[C@]12CC[C@@H](O)C[C@H]1CC[C@@H]1[C@@H]2CC[C@]2(C)[C@@H](C(=O)CO)CC[C@@H]12 [Tetrahydrodeoxycorticosterone, 5β-pregnan-3α,21-diol-20-one]",
    "assay.value": 9.0
  },
  {
    "compound": "CC(=O)[C@H]1CC[C@H]2[C@@H]3CC[C@@H]4C[C@@H](O)CC[C@]4(C)[C@H]3CC[C@]12C [Epipreganolone, 5β-pregnan-3β-ol-20-one]",
    "assay.value": 8.8
  },
  {
    "compound": "CC(=O)[C@H]1CC[C@H]2[C@@H]3CC[C@H]4C[C@H](O)CC[C@]4(C)[C@H]3CC[C@]12C",
    "assay.value": 8.8
  },
  {
    "compound": "C[C@]12CCC(=O)C=C1CC[C@@H]1[C@@H]2[C@@H](O)C[C@@]2(C)[C@H]1CC[C@]2(O)C(=O)CO [Hydrocortisone, reference compound]",
    "assay.value": 8.7
  },
  {
    "compound": "CC(=O)[C@H]1CC[C@H]2[C@@H]3CC=C4C[C@@H](OS(=O)(=O)O)CC[C@]4(C)[C@H]3CC[C@]12C [Pregnenolone sulphate, 5-pregnen-3β-ol-20-one-sulphate]",
    "assay.value": 8.8
  },
  {
    "compound": "C[C@]12C=CC(=O)C=C1CC[C@@H]1[C@@H]2[C@@H](O)C[C@@]2(C)[C@H]1CC[C@]2(O)C(=O)CO [Prednisolone, reference compound]",
    "assay.value": 8.9
  }
]

Okay, now this compound:
What value of pH has been recorded for this entry: C[C@]12CC[C@@H](O)C[C@@H]1CC[C@@H]1[C@@H]2CC[C@]2(C)C(=O)CC[C@@H]12
8.9

###

- test.summary: Quality of castor oil containing emulsions with different steroids (pH, volume distribution, span, storage stability)
- Assay type: physicochemical
- stated.conditions: emulsion of the steroid, vehicle CO (castor oil); Malvern Mastersizer
# Span values compiled below
Just the number, please, no unit after it.

[
  {
    "molecule": "CC(=O)[C@H]1CC[C@H]2[C@@H]3CC=C4C[C@@H](OS(=O)(=O)O)CC[C@]4(C)[C@H]3CC[C@]12C [Pregnenolone sulphate, 5-pregnen-3β-ol-20-one-sulphate]",
    "Span": 1.76
  }
]

Any idea what its Span is? The molecule is C[C@]12CCC(=O)C=C1CC[C@@H]1[C@@H]2[C@@H](O)C[C@@]2(C)[C@H]1CC[C@]2(O)C(=O)CO [Hydrocortisone, reference compound]
1.43

Need Span, item CC(=O)[C@H]1CC[C@H]2[C@@H]3CC[C@H]4C[C@H](O)CC[C@]4(C)[C@H]3CC[C@]12C
1.70

Return reported Span; argument: C[C@]12CC[C@@H](O)C[C@H]1CC[C@@H]1[C@@H]2CC[C@]2(C)[C@@H](C(=O)CO)CC[C@@H]12 [Tetrahydrodeoxycorticosterone, 5β-pregnan-3α,21-diol-20-one]
1.80

Given the entry C[C@]12C=CC(=O)C=C1CC[C@@H]1[C@@H]2[C@@H](O)C[C@@]2(C)[C@H]1CC[C@]2(O)C(=O)CO [Prednisolone, reference compound] , report its measured Span.
1.28

What does the data say about its Span? Entry: CC(=O)[C@H]1CC[C@H]2[C@@H]3CC[C@@H]4C[C@@H](O)CC[C@]4(C)[C@H]3CC[C@]12C [Epipreganolone, 5β-pregnan-3β-ol-20-one]
1.81

Could you share which Span value was measured for C[C@]12CC[C@@H](O)C[C@@H]1CC[C@@H]1[C@@H]2CC[C@]2(C)C(=O)CC[C@@H]12 ?
1.79
